# Tested on: SNB-75 CNS
# Experiment notes: NCI-60 one-dose screen, 48 h
# Assay conditions: 10 µM unless noted
# Protocol: Growth inhibition of the SNB-75 human tumor cell line is measured as a screen for anti-cancer activity. Cells are grown in 96 well plates and exposed to the test compound for 48 hours. Compounds are tested at a single concentration, which is 10^-5 M for most compounds. The reported endpoint is percent growth (GI% or GIPRCNT), where numbers from 0 - 100% represent growth inhibition, and numbers from -100% - 0 represent cell death. For example, a value of 40 represents 60% growth inhibition. […]
The panel holds about 83,000 compounds, 20% with a hit somewhere; the sample as a whole holds those more often. Active and inactive are the calls of the source. How the source made its calls: active means growth percent below 10; inactive means the rest.
Outcomes: 1.0 = active, 0.0 = inactive

> print(dat)
                                    compound  classification
 1  O=c1[nH]c2ccccc2cc1CSc1ccccc1Nc1nccc(-c2ccc(C(F)(F)F)cc2)n1             0.0
 2  CSCCC(C(=O)O)N1C(=O)/C(=C/c2ccc(O)c(O)c2)SC1=S (stereo not drawn)             0.0
 3  COc1ccc(C(=O)/C=C/c2ccc(Oc3nc(NCCO)nc(N4CCOCC4)n3)c(OC)c2)cc1             0.0
 4  COc1cc(/C=C/C(=O)c2cc(OC)c(OC)c(OC)c2)ccc1Oc1nc(NCCO)nc(N2CCOCC2)n1             0.0
 5  O=C1NC(=C(Cl)Cl)/C(=N/S(=O)(=O)N2CCCCC2CC2(C(F)(F)F)N=N2)N1 (stereo not drawn)             0.0
 6  Cc1cc(C(=O)Nc2sc3c(c2C(N)=O)CCC(=O)C3)ccc1OCCN1CCCCC1             0.0
 7  Nc1c(C(=O)c2ccc(Br)cc2)oc2nc(-c3cnccn3)cc(-c3cccs3)c12             0.0
 8     COc1ccc(-c2nn3c(-c4ccccc4F)nnc3s2)cc1             0.0
 9  O=C(CSc1nc2sc3c(c2c(=O)n1-c1ccc(Cl)cc1)CCCC3)N/N=C/c1ccc(F)cc1             0.0
10  O=C(CSc1nnc(-c2ccc3nc(-c4ccc(Cl)cc4)[nH]c3c2)o1)Nc1ccc(C(=O)/C=C/c2ccc(Cl)cc2)cc1             0.0
11  C#Cc1nc(C2=C(C)C(OC(=O)CCC(=O)O)CC2)cs1 (stereo not drawn)             0.0
12  Nc1cc(-c2c[nH]c3ccc(Cl)cc23)nc2cc(-c3c[nH]c4ccc(Cl)cc34)nn12             0.0
13  O=c1/c(=C\c2ccc(-c3ccccc3)o2)sc2nc(-c3ccccc3)nn12             0.0
14  CC(C)(C)Nc1nc2c(OCCc3ccccc3)cccn2c1-c1ccc(Cl)cc1             0.0
15  O=C(N/N=C/c1ccco1)c1[nH]c2ccc(Br)cc2c1-c1ccccc1             0.0
16  Cc1ccc(CNS(=O)(=O)/N=C2\NC(=O)NC2=C(Cl)Cl)cc1             1.0
17  CCOc1ccc2nc(NC(=O)c3ccc(C(F)(F)F)cc3)sc2c1             0.0
18  C#Cc1nc(C2=C(C)C(OC(C)=O)/C(=N/OC(C)=O)C2)cs1 (stereo not drawn)             1.0
19   C=CCSc1ccc2c(c1)C(N1CCNCC1)=Nc1ccccc1O2             0.0
20  CCOC(=O)c1sc(NCC(=O)Nc2cccc([N+](=O)[O-])c2)c(C(=O)OCC)c1C             1.0
21  Cc1c(Nc2nnc(SCC(=O)Nc3sc4c(c3C#N)CCCC4)s2)c(=O)n(-c2ccccc2)n1C             0.0
22  C#C[C@]1(O)CC[C@H]2[C@@H]3CC=C4c5sc(Nc6ccc(Cl)cn6)nc5CC[C@]4(C)[C@H]3CC[C@@]21C             1.0
23       COc1ccc(NC2=CC(=O)C(C)=C(C)C2=O)cc1             0.0
24  N#Cc1nc(-c2ccccc2)oc1N1CCC(CO)C1 (stereo not drawn)             0.0
25  COc1ccc(-c2nc3ccc(-c4nnc(SCC(=O)Nc5ccc(C(C)=O)cc5)o4)cc3[nH]2)cc1             0.0
26  COc1cccc(-c2nn(-c3ccccc3)cc2-c2ccnc(N3CCN(C(=O)c4ccccc4)CC3)c2)c1             0.0
27  N#Cc1c(-c2ccc(Cl)cc2)nc(SCc2ccc(F)cc2)nc1N1CCNCC1             0.0
28  N[C@@H](Cc1cn(-c2c3ccccc3nc3ccccc23)nn1)C(=O)O             0.0
29  N#Cc1ccc(C(=O)CSc2nc(Nc3ccc(S(N)(=O)=O)cc3)c3ccccc3n2)cc1             0.0
30  Cc1cc(C(NC(=O)CCCCCNc2cccc3c2C(=O)N(C2CCC(=O)NC2=O)C3=O)c2cccnc2)c(O)c2ncccc12 (stereo not drawn)             1.0
31  CS(=O)(=O)c1ccc(-n2cc(/C=C/C(=O)c3ccc(NC(=O)CO[N+](=O)[O-])cc3)c(-c3ccc(Cl)cc3)n2)cc1             0.0
32  O=C1/C(=C/C2=Cc3ccccc3OC2)SC(=S)N1c1ccc(F)cc1             0.0
33  CN1C(=S)N(C)C2C1NN=C1SC(c3ccccc3)=CC(=O)N12 (stereo not drawn)             0.0
